Origin of values: patent US7012144B2

- target system: gyrase of E. coli (Escherichia coli, UniProt P0AES4+P0AES6)
- Construct: gyrase purified from of E. coli; host or cells: E. coli
- protocol text: Inhibition of the enzyme activity of gyrase
- Format: biochemical
- condition info: concentration to inhibit the enzyme activity of gyrase of E. coli
readout type: IC100, Gyrase (µg/mL)

{"molecule": "COc1c(N2CCC(N)(c3ccncc3)C2)c(F)cc2c(=O)c(C(=O)O)cn(C3CC3)c12 (stereo not shown)", "observed": 0.4}
{"molecule": "O=C(O)c1cn(C2CC2)c2cc(N3CCNCC3)c(F)cc2c1=O [Ciprofloxacin, reference compound]", "observed": 0.5}
{"molecule": "COc1c(N2CCC(CN)(c3ccccn3)C2)c(F)cc2c(=O)c(C(=O)O)cn(C3CC3)c12 (stereo not shown)", "observed": 0.2}
{"molecule": "CC1CN(c2c(F)c(N)c3c(=O)c(C(=O)O)cn(C4CC4)c3c2F)CC(C)N1 (stereo not shown) [Sparfloxacin, reference compound]", "observed": 1.0}
